All figures here come from the supplement of paper PMC10567573.

B1: PTPRD (parent)
chain: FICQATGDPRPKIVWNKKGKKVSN

- Variants of: B1
- Test Protocol: protein stability index of a GFP-peptide fusion (GPS, HEK-293T) (PSI 1-6); higher = more stable;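 further: lentivirally expressed fusions sorted by FACS into six bins by GFP to DsRed ratio, PSI derived from sequencing read proportions per bin multiplied by bin number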
- Run Parameters: c terminus: a fixed tail appended
Measurement Name: protein stability index
Format: numeric value only, no unit, no commentary.

>  <Variant String>
F1K

>  <Measurement Name>
protein stability index

>  <Reported Result>
3.12

$$$$

INPUT: Which measured protein stability index value corresponds to G19F ?
OUTPUT: 2.51

INPUT: Same question, P11W this time
OUTPUT: 1.87

INPUT: Further, for C3V ?
OUTPUT: 2.31

INPUT: Then what about the variant V14R ?
OUTPUT: 1.78

INPUT: Quick one: N16D
OUTPUT: 2.45

INPUT: Follow-up item: T6Q
OUTPUT: 2.17
